Assay protocol: chemical genetic growth profiling, strain panel (AID 1159580);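 also: tested at 20 µM; growth read once vehicle control cultures reached saturation at 30 °C; 1 = growth at the plate median or of vehicle wells; lower values mean less growth of the strain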
Setup conditions: S. cerevisiae deletion strains, growth OD, locus YNL307C, strain MCK1
Hit rate of the full screen: of about 5,500 compounds, about 2,000 (36%) were called active. Roughly 18% stayed inconclusive and do not appear here. Rule as the data show it: active = normalized growth mostly below about 0.91 (no sharp cut-off); inconclusive = no clear call, values can overlap the other calls; inactive = mostly above about 0.92. This is one part of the list.
One label from this list, please: t = active, f = inactive

## Input Could you kindly confirm the outcome this assay logged for `CC(=O)OCC(COC(C)=O)OC(C)=O` ?
## Output f

---
## Input Answer briefly: the call reported for `Cc1cccc(C(=O)O)c1O` in this assay.
## Output f

## Input Tell me the assay call for `CC1(C)NC(=O)N(c2ccc([N+](=O)[O-])c(C(F)(F)F)c2)C1=O` please.
## Output f

## Input Dear all, I need the recorded test outcome for C/C1=C\CCC(=O)C2CC(C)(C)C2CC1 (centres undefined) , thank you.
## Output f

* * *

Assay protocol: chemical genetic growth profiling, strain panel (AID 1159580);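 also: tested at 20 µM; growth read once vehicle control cultures reached saturation at 30 °C; 1 = growth at the plate median or of vehicle wells; lower values mean less growth of the strain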
Setup conditions: S. cerevisiae deletion strains, growth OD, locus YKR026C, strain gcn3, active compounds read low
Hit rate of the full screen: of about 5,500 compounds, about 2,000 (36%) were called active. Roughly 18% stayed inconclusive and do not appear here. The list shows a part of the results.
Recorded normalized growth for the following compounds
Simply state the number, no unit and no words.

Data point: `CC(C)NNC(=O)c1ccncc1` ; normalized growth = 0.997

// normalized growth value for C=C1CCC(C2CC(=O)OC2=O)C(=O)CCC2C1CC2(C)C (stereo not drawn) : 1.01

Notebook: COc1ccc2c(c1OC)C(=O)OC2[C@H]1c2c(cc3c(c2OC)OCO3)CCN1C (stereo partly drawn) , normalized growth read as 1

GET /value?item= CCCCCCCCCCCCCCCC(=O)OC1C(SC)OC(C(NC(=O)C2CC(CCC)CN2C)C(C)Cl)C(O)C1O (stereo not drawn) &field=normalized growth returns 0.973

Query `C[C@H]1CC[C@@H](C(C)(C)O)CC2=C1CC[C@@H]2C` yields normalized growth of 0.97

* * *

Assay protocol: chemical genetic growth profiling, strain panel (AID 1159580);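 also: tested at 20 µM; growth read once vehicle control cultures reached saturation at 30 °C; 1 = growth at the plate median or of vehicle wells; lower values mean less growth of the strain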
Setup conditions: S. cerevisiae deletion strains, growth OD, locus YFR010W, strain ubp6, active compounds read low
Hit rate of the full screen: of about 5,500 compounds, about 2,000 (36%) were called active. About 18% were inconclusive and are not listed. The list shows a part of the results.
Measurement name: normalized growth
Field format: numeric only.

// COC(=O)C(C)c1ccc(C(=O)c2cccs2)cc1 (stereo not given) : normalized growth value = 1.01

normalized growth reading for `C=C1C(=O)O[C@@H]2C[C@@]3(C)CCC[C@H](C)C3=C[C@H]12` : 0.862

// `CCC(C)(C)C(=O)O[C@H]1C[C@@H](C)C=C2C=C[C@H](C)[C@H](CC[C@@H]3C[C@@H](O)CC(=O)O3)[C@H]21` : normalized growth value = 0.973

For CCC(C)C(=O)O[C@H]1C[C@H](O)C=C2C=C[C@H](C)[C@H](CC[C@@H](O)C[C@@H](O)CC(=O)O)C21 (stereo not given in full) the molecule record lists normalized growth as 0.995

Reported normalized growth ( `Cc1ccc(C)c(OCCCC(C)(C)C(=O)O)c1` ) = 0.991

// recorded normalized growth for `CC[C@H](C)C(=O)O[C@H]1C[C@@H](C)C=C2C=C[C@H](C)[C@H](CC[C@@H]3C[C@@H](O)CC(=O)O3)[C@H]21` : 1.02

GET /value?item= `CCCOc1ccc(C(=O)OCCN(CC)CC)cc1N` &field=normalized growth returns 0.996

For `O=c1[nH]oc2c1CCNC2` the molecule record lists normalized growth as 1.01

Entry CC(C(=O)O)c1ccc(C(=O)c2cccs2)cc1 (stereo not given) — recorded normalized growth = 0.991

Sure, the documented normalized growth for `CCCCN(CCCC)CCCOC(=O)c1ccc(N)cc1` is 0.99
